B1: C9orf9 (parent)
chain: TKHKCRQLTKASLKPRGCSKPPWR

- Variants of: B1
- protocol notes: protein stability index of a GFP-peptide fusion (GPS, HEK-293T) (PSI 1-6); higher = more stable;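 also: lentivirally expressed fusions sorted by FACS into six bins by GFP to DsRed ratio, PSI derived from sequencing read proportions per bin multiplied by bin number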
- test parameters: c terminus: a fixed tail appended

{"mutation code": "K20F", "protein stability index": 2.32}
{"mutation code": "L13P", "protein stability index": 3.42}
{"mutation code": "S19M", "protein stability index": 2.94}
{"mutation code": "R6P", "protein stability index": 1.91}
{"mutation code": "K14A", "protein stability index": 2.24}
{"mutation code": "L13Q", "protein stability index": 3.57}
{"mutation code": "P15K", "protein stability index": 3.52}
{"mutation code": "L8M", "protein stability index": 2.62}
{"mutation code": "T1I", "protein stability index": 2.59}
{"mutation code": "L8T", "protein stability index": 3.22}
{"mutation code": "K14R", "protein stability index": 2.52}
{"mutation code": "P22T", "protein stability index": 3.03}
{"mutation code": "R24E", "protein stability index": 3.22}
{"mutation code": "K2I", "protein stability index": 1.64}
{"mutation code": "Q7M", "protein stability index": 2.14}
{"mutation code": "T1G", "protein stability index": 3.17}
{"mutation code": "R16M", "protein stability index": 2.45}
{"mutation code": "R6W", "protein stability index": 2.46}
{"mutation code": "K20H", "protein stability index": 2.76}
{"mutation code": "H3E", "protein stability index": 2.77}
{"mutation code": "R16L", "protein stability index": 2.56}
